Biological target: T1, cynomolgus monkey IL-33 expressed with a C-terminal hexahistidine tag (cynomolgus monkey)
T1 construct: also called MfIL-33-6His; Mf-IL-33-6His
T1 chain: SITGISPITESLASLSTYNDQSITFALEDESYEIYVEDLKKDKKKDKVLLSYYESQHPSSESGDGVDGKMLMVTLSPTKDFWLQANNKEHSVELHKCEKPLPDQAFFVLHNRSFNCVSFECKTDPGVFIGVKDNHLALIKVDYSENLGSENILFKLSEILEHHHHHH
Experiment: SPR 37C, pH6.0 chase, mAb captured
Measured koff, listed per entry for reference.

binder="H4H9640P (antibody, human IgG4, V domains shown, Human IgG4 Fc (H4H)) VH: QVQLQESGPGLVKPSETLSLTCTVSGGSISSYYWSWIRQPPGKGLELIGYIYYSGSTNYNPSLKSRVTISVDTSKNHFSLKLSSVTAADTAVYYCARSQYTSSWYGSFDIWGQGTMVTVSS VL: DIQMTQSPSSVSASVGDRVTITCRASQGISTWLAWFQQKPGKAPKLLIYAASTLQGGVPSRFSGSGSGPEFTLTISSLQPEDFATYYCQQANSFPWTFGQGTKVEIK" result_value="0.00226 s⁻¹"
binder="H4H9675P (antibody, human IgG4, V domains shown, Human IgG4 Fc (H4H)) VH: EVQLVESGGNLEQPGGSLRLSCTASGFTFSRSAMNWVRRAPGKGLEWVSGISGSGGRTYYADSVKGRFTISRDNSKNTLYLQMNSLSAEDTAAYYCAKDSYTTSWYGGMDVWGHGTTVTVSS VL: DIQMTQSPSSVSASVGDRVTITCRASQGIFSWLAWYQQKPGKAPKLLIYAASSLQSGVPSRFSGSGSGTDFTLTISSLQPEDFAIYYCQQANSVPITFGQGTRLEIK" result_value="0.00735 s⁻¹"

Okay, next one:
Query: Annotate the binder H4H9663P (antibody, human IgG4, V domains shown, Human IgG4 Fc (H4H)) VH: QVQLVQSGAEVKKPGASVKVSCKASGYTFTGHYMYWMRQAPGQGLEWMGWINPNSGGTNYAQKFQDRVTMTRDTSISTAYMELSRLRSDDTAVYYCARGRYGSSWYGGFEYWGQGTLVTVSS VL: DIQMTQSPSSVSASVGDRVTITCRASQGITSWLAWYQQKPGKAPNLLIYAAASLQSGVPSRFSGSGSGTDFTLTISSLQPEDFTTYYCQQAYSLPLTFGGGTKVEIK with its measured koff.
Result: 0.00354 s⁻¹
